# assay_target: Protein kinase C theta type (Homo sapiens) (UniProt Q04759)
# Sequence (Q04759 whole entry, looked up): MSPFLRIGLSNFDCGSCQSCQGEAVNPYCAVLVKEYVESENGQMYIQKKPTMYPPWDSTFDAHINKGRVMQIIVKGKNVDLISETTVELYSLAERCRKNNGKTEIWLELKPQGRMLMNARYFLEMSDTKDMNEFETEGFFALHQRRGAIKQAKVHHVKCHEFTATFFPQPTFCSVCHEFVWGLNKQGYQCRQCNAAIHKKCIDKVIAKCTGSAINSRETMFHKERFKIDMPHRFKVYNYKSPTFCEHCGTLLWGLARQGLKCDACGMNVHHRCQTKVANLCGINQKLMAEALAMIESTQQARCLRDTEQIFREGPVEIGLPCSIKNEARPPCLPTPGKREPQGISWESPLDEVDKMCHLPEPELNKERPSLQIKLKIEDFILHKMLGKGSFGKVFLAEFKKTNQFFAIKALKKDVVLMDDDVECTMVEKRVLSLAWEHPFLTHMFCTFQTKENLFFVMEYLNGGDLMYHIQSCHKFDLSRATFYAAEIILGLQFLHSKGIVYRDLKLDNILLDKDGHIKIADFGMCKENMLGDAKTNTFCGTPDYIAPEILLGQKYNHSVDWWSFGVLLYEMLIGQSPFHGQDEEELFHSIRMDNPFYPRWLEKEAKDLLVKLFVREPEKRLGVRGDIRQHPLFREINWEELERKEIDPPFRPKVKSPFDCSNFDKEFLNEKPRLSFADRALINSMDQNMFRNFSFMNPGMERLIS
# experimental_setup: at 1 µM
This section presents molecules with their documented residual activity values.
# output: bare number, implied unit %

Solved entries:
Endpoint output: residual activity of O=c1c2ccccc2[nH]c(=S)n1CCN1CCC(=C(c2ccc(F)cc2)c2ccc(F)cc2)CC1 . Value? 110

Input CC[n+]1c(/C=C/N(C)c2ccccc2)n(-c2ccccc2)c2ccc(-c3nc4ccccc4s3)cc21 96

Input O=C1NC(=O)/C(=C/c2ccc3c(c2)OC(F)(F)O3)S1 109

Input COc1ccc(CNc2nc(N(CCO)CCO)nc3c2ncn3C(C)C)cc1 4

Consider the additional molecule presented here.
Endpoint output: residual activity of COc1ccc(OC)c2c(=S)c3ccccc3[nH]c12 . Value? 81
